All values here come from PubChem BioAssay (NCATS).

Assay: qHTS Assay for Lipid Storage Modulators (AID 1519); note: % is set by controls: 0 for no effect and ±100 for the full control effect
Settings: Drosophila S3 cells, BODIPY lipid droplet/cell ratio, laser cytometry; at 25.7 µM (top of the series); cells loaded with oleic acid
Description: NIH Molecular Libraries Probe Production Centers Network [MLPCN] NIH Chemical Genomics Center [NCGC] Assay Submitter (PI): Beller, Mathias; Max-Planck-Institut fur Biophysikalische Chemie […] We dispensed 4 uL of cells at 1.25 x 10^6 cells/mL into LoBase Aurora COC 1,536-well plates (black walled, clear bottom) with a bottle-valve solenoid-based dispenser (Aurora) to obtain 5,000 cells/well. […] The ratio of the total intensity in PMT channel 1 over total intensity of channel 3 was also calculated. […]
Results filed as inconclusive are left out.
This section presents compounds with their documented activity change, negative = inhibition values.
Outcome Measure: activity change, negative = inhibition (%)

compound=C[C@H]1CC[C@]2(OC1)O[C@@H]1C[C@@H]3[C@@H]4CC[C@H]5C[C@@H](O)CC[C@]5(C)[C@@H]4CC(=O)[C@@]3(C)[C@H]1[C@@H]2C uom=% value_measured=-1.95
compound=C[C@@H](C(=O)O)c1ccc(C(=O)c2ccccc2)s1 uom=% value_measured=-0.119
compound=NS(=O)(=O)c1cc2c(cc1C(F)(F)F)N[C@H](Cc1ccccc1)NS2(=O)=O uom=% value_measured=1.42
compound=Nc1c(O)cccc1C(=O)C[C@@H](N)C(=O)O uom=% value_measured=-1.89
compound=C=CCO[C@@H](Cn1ccnc1)c1ccc(Cl)cc1Cl uom=% value_measured=-0.8
compound=Cc1cccc(C)c1NC(=O)[C@H](C)N uom=% value_measured=-1.94
compound=C=CCN1C(=CCO)[C@H]2C[C@H]3[C@@H]1CC[C@@]31c3ccccc3N3C=C4[C@@H]5N(/C=C/2[C@H]31)c1ccccc1[C@]51CC[C@H]2[C@H]1C[C@@H]4/C(=C/CO)N2CC=C uom=% value_measured=0.271
compound=NC[C@@H]1O[C@H](O[C@@H]2[C@H](O[C@@H]3O[C@H](CO)[C@@H](O)[C@@H]3O)[C@@H](O)[C@@H](N)C[C@H]2N)[C@@H](N)[C@H](O)[C@@H]1O uom=% value_measured=-2.12
compound=O[C@H](c1cc(C(F)(F)F)nc2c(C(F)(F)F)cccc12)[C@H]1CCCCN1 uom=% value_measured=-11.8
compound=Cc1c(C)c2c(c(C)c1O)CC[C@@](C)(C(=O)O)O2 uom=% value_measured=0.436
compound="CC1(C)S[C@@H]2[C@H](NC(=O)C(N)c3ccccc3)C(=O)N2[C@H]1C(=O)O (stereo partly drawn)" uom=% value_measured=-0.37
compound=C[N+]1(C)C[C@@H](O)C[C@@H]1C(=O)[O-] uom=% value_measured=-1.53
compound=CC[C@H](C)C(=O)O[C@@H]1C[C@H](C)C=C2C=C[C@H](C)[C@@H](CC[C@H]3C[C@@H](O)CC(=O)O3)[C@H]21 uom=% value_measured=-5.83
compound=C[C@@]12CC[C@H]3[C@@H](CCC4=CC(=O)CC[C@]43C)[C@H]1CC[C@H]2C(=O)CO uom=% value_measured=-5.79
compound=CC(C)NC[C@H]1CCc2cc(CO)c([N+](=O)[O-])cc2N1 uom=% value_measured=-3.1
compound=CCCC(=O)Nc1ncnc2c1ncn2[C@@H]1O[C@H]2COP(=O)(O)O[C@@H]2[C@@H]1OC(=O)CCC uom=% value_measured=-1.42
compound=COCCOC(=O)C1=C(C)NC(C)=C(C(=O)OC(C)C)[C@H]1c1cccc([N+](=O)[O-])c1 uom=% value_measured=-3.07
compound=CC(=O)OCC(=O)[C@@]12OC(C)(C)O[C@@H]1C[C@H]1[C@H]3C[C@H](F)C4=CC(=O)C=C[C@@]4(C)[C@]3(F)[C@H](O)C[C@@]12C uom=% value_measured=-1.78
